System: DG-75 (Burkitt's Lymphoma)
Assay: Bliss excess, mean over the matrix (fraction); higher = more synergy;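 further: after 72 h of two-drug dosing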
Measure: Bliss excess
Form field (numeric): enter value without unit.

Q) Param item = Cc1c2c(nn1C)CSCc1cc(n(C)n1)CSc1cc(c3ccccc3c1)OCCCc1c(C(=O)O)n(C)c3c-2c(Cl)ccc13 [AZD5991] + C[C@@H](Nc1cc(F)cc(F)c1)c1cc(C(=O)N(C)C)cc2c(=O)cc(N3CCOCC3)oc12 [AZD8186] (first compound max 1 µM, 7x7, partner max 3 µM) ; retrieve measured Bliss excess.
A) 0.0008

Q) Param item = Cn1cnc2c(F)c(Nc3ccc(Br)cc3Cl)c(C(=O)NOCCO)cc21 [Selumetinib] + CCN(CCO)CCCOc1ccc2c(Nc3cc(CC(=O)Nc4cccc(F)c4)[nH]n3)ncnc2c1 [AZD2811] (first compound max 10 µM, 7x7, partner max 1 µM) ; retrieve measured Bliss excess.
A) 0.0193

Q) Param item = CS(=O)(=O)CCNCc1ccc(-c2ccc3ncnc(Nc4ccc(OCc5cccc(F)c5)c(Cl)c4)c3c2)o1 [Lapatinib] + C[C@@H](Oc1cc(-c2cnn(C3CCNCC3)c2)cnc1N)c1c(Cl)ccc(F)c1Cl [Crizotinib] (first compound max 10 µM, 7x7, partner max 10 µM) ; retrieve measured Bliss excess.
A) 0.0033

Q) Param item = COc1nnc2ccc(N3CCC(c4ccc(OCCN5CCN(C)C(=O)[C@H]5C)cc4)CC3)nn12 [AZD5153] + C=CCn1c(=O)c2cnc(Nc3ccc(N4CCN(C)CC4)cc3)nc2n1-c1cccc(C(C)(C)O)n1 [AZD1775] (first compound max 1 µM, partner max 1 µM) ; retrieve measured Bliss excess.
A) -0.0437

* * *

Test system: GOTO (Neuroblastoma)
Test: Bliss excess, mean over the matrix (fraction); higher = more synergy
For each of the molecules below, state its Bliss excess.

Q) Given the entry COc1nnc2ccc(N3CCC(c4ccc(OCCN5CCN(C)C(=O)[C@H]5C)cc4)CC3)nn12 [AZD5153] + CC1(C)CCC(CN2CCN(c3ccc(C(=O)NS(=O)(=O)c4ccc(NCC5CCOCC5)c([N+](=O)[O-])c4)c(Oc4cnc5[nH]ccc5c4)c3)CC2)=C(c2ccc(Cl)cc2)C1 [Venetoclax] (first compound max 1 µM, 7x7, partner max 1 µM) , what Bliss excess was observed with GOTO (Neuroblastoma)?
A) -0.065

Q) Given the entry C[C@@H](c1ccc2nccn2c1)n1nnc2ncc(-c3cnn(C)c3)nc21 [Savolitinib] + CC1(C)CCC(CN2CCN(c3ccc(C(=O)NS(=O)(=O)c4ccc(NCC5CCOCC5)c([N+](=O)[O-])c4)c(Oc4cnc5[nH]ccc5c4)c3)CC2)=C(c2ccc(Cl)cc2)C1 [Venetoclax] (first compound max 1 µM, 7x7, partner max 1 µM) , what Bliss excess was observed with GOTO (Neuroblastoma)?
A) -0.0228

* * *

For each of the compounds below, state its Bliss excess.
Test system: SCC-3 (B-Cell Non-Hodgkin's Lymphoma)
Assay: Bliss excess, mean over the matrix (fraction); higher = more synergy

Q) Given the entry CN(CCO)CC[C@H](CSc1ccccc1)Nc1ccc(S(=O)(=O)NC(=O)c2ccc(N3CCC([C@@H](O)c4ccccc4-c4ccc(Cl)cc4)CC3)cc2)cc1S(=O)(=O)C(F)(F)F [AZD4320] + Cn1cnc2c(F)c(Nc3ccc(Br)cc3Cl)c(C(=O)NOCCO)cc21 [Selumetinib] (first compound max 1 µM, 7x7, partner max 3 µM) , what Bliss excess was observed with SCC-3 (B-Cell Non-Hodgkin's Lymphoma)?
A) 0.0222

Q) Given the entry Cc1c2c(nn1C)CSCc1cc(n(C)n1)CSc1cc(c3ccccc3c1)OCCCc1c(C(=O)O)n(C)c3c-2c(Cl)ccc13 [AZD5991] + C[C@@H](Nc1cc(F)cc(F)c1)c1cc(C(=O)N(C)C)cc2c(=O)cc(N3CCOCC3)oc12 [AZD8186] (first compound max 1 µM, 7x7, partner max 3 µM) , what Bliss excess was observed with SCC-3 (B-Cell Non-Hodgkin's Lymphoma)?
A) -0.0036

Q) Given the entry C=CCn1c(=O)c2cnc(Nc3ccc(N4CCN(C)CC4)cc3)nc2n1-c1cccc(C(C)(C)O)n1 [AZD1775] + C1CN(CCC1(C(=O)N[C@@H](CCO)C2=CC=C(C=C2)Cl)N)C3=NC=NC4=C3C=CN4 [Capivasertib] (first compound max 3 µM, partner max 3 µM) , what Bliss excess was observed with SCC-3 (B-Cell Non-Hodgkin's Lymphoma)?
A) 0.0613

Q) Given the entry Cc1c2c(nn1C)CSCc1cc(n(C)n1)CSc1cc(c3ccccc3c1)OCCCc1c(C(=O)O)n(C)c3c-2c(Cl)ccc13 [AZD5991] + C=CCn1c(=O)c2cnc(Nc3ccc(N4CCN(C)CC4)cc3)nc2n1-c1cccc(C(C)(C)O)n1 [AZD1775] (first compound max 1 µM, partner max 1 µM) , what Bliss excess was observed with SCC-3 (B-Cell Non-Hodgkin's Lymphoma)?
A) 0.0088
